Kindly state IC50 for each of the entries shown.
Biological target: purified human Factor XIa (Homo sapiens (Human))
Sequence (P03951 388-625): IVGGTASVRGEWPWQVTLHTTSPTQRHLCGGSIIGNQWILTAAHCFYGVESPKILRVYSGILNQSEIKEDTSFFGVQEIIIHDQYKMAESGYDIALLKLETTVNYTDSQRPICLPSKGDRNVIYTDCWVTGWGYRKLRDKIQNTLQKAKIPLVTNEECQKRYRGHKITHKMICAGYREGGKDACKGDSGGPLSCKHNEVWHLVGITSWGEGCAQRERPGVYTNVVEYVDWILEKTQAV
Sequence (P03951 19-387 partner): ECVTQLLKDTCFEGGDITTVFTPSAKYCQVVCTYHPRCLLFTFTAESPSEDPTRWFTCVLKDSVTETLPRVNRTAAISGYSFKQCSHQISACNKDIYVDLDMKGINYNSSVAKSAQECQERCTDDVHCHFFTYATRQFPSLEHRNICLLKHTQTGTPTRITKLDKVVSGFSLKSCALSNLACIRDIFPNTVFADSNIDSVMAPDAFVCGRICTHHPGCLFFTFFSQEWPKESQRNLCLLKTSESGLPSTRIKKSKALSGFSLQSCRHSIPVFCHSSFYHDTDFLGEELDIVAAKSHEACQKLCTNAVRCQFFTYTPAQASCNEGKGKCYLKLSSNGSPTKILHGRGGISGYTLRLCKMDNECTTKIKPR
Assay: Factor XIa Assay
Format: biochemical
Conditions: substrate Z-Gly-Pro-Arg-AFC 100 μM, 40 pM enzyme, pH 7.4; read-out: FXIa IC50
Numbers only, in nM.

Some entries whose results are on file:
Which measured IC50 value corresponds to CNC(=O)N1CCC(c2cccc(C(Cc3ccccc3)c3ccc(-c4cc(Cl)ccc4-n4cnnn4)c[n+]3[O-])c2)CC1 (racemic) ?
10.2

Which measured IC50 value corresponds to "NC(=O)C(=O)N1CCC(c2cccc([C@H](Cc3ccccc3)c3ccc(-c4cc(Cl)ccc4-n4cnnn4)c[n+]3[O-])c2)CC1" ?
9.95

Which measured IC50 value corresponds to O=C(O)c1cccc(-c2cccc([C@@H](Cc3ccccc3)c3ccc(-c4cc(Cl)ccc4-n4cnnn4)c[n+]3[O-])c2)c1 (stereo in doubt) ?
41

Which measured IC50 value corresponds to "CC(C)COC(=O)N1CCC(c2cccc([C@H](Cc3ccccc3)c3ccc(-c4cc(Cl)ccc4-n4cnnn4)c[n+]3[O-])c2)CC1" ?
557

Now for a further compound.
Which measured IC50 value corresponds to "O=C(C1COC1)N1CCC(c2cccc([C@H](Cc3ccccc3)c3ccc(-c4cc(Cl)ccc4-n4cnnn4)c[n+]3[O-])c2)CC1" ?
11.8

---

Kindly state IC50 for each of the entries shown.
Target: purified Human plasma kallikrein (Homo sapiens (Human))
Sequence (P03952 391-638): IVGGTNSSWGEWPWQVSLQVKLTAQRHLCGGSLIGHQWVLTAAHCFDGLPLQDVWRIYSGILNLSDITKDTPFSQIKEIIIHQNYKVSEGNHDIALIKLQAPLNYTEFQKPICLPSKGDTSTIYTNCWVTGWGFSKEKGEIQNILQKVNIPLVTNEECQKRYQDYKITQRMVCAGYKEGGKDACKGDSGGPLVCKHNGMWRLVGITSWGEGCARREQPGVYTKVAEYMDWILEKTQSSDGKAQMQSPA
Sequence (P03952 20-390 partner): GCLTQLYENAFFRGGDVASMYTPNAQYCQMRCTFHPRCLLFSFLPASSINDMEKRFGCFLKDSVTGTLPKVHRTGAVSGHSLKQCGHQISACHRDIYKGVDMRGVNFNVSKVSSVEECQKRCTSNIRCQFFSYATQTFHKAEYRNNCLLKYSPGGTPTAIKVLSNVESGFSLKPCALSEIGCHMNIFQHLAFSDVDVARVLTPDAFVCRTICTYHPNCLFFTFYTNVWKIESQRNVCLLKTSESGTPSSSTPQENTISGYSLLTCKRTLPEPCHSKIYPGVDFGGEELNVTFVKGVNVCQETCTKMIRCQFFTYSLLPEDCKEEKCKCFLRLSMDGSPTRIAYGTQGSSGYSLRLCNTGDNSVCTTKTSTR
Experiment: Kallikrein Assay
Format: biochemical
Conditions: Plasma kallikrein; substrate Acetyl-K-P-R-AFC, 0.5 nM enzyme, pH 7.4; read-out: PK IC50
Please don't drop the unit; write it after the number.

Some entries whose results are on file:
API: value(readout=IC50, system=purified Human plasma kallikrein (Homo sapiens (Human))) for record "O=C1CC(C(=O)N2CCC(c3cccc([C@H](Cc4ccccc4)c4ccc(-c5cc(Cl)ccc5-n5cnnn5)c[n+]4[O-])c3)CC2)C1"
324 nM

API: value(readout=IC50, system=purified Human plasma kallikrein (Homo sapiens (Human))) for record O=C(C1CC1(F)F)N1CCC(c2cccc([C@H](Cc3ccccc3)c3ccc(-c4cc(Cl)ccc4-n4cnnn4)c[n+]3[O-])c2)CC1 (stereo partly drawn)
820 nM

Now for a further compound.
API: value(readout=IC50, system=purified Human plasma kallikrein (Homo sapiens (Human))) for record O=C(NCC1CCOC1)N1CCC(c2cccc([C@H](Cc3ccccc3)c3ccc(-c4cc(Cl)ccc4-n4cnnn4)c[n+]3[O-])c2)CC1 (stereo partly drawn)
384 nM

---

Kindly state IC50 for each of the entries shown.
Biological target: purified Human plasma kallikrein (Homo sapiens (Human))
Assay: Kallikrein Assay
Type: biochemical
Conditions: Plasma kallikrein; substrate Acetyl-K-P-R-AFC, 0.5 nM enzyme, pH 7.4; read-out: PK IC50
Give bare numbers, in nM.

Which measured IC50 value corresponds to O=C(O)c1cccc(-c2cccc([C@H](Cc3ccccc3)c3ccc(-c4cc(Cl)ccc4-n4cnnn4)c[n+]3[O-])c2)c1 (stereo in doubt) [Example 9] ?
24.9

Which measured IC50 value corresponds to CCNC(=O)N1CCC(c2cccc([C@H](Cc3ccccc3)c3ccc(-c4cc(Cl)ccc4-n4cnnn4)c[n+]3[O-])c2)CC1 [Example 28] ?
271

Which measured IC50 value corresponds to O=C(C1COC1)N1CCC(c2cccc([C@H](Cc3ccccc3)c3ccc(-c4cc(Cl)ccc4-n4cnnn4)c[n+]3[O-])c2)CC1 [Example 40] ?
413

Which measured IC50 value corresponds to COC(=O)Nc1ccc(-c2cccc(C(Cc3ccccc3)c3ccc(-c4cc(Cl)ccc4-n4cnnn4)c[n+]3[O-])c2)cc1 (racemic) [Example 1] ?
24.4

Which measured IC50 value corresponds to COC(=O)Nc1ccc(-c2cccc([C@H](Cc3ccccc3)c3ccc(-c4cc(Cl)ccc4-n4cnnn4)c[n+]3[O-])c2)cc1 [Example 3] ?
34.3

New cases:
Which measured IC50 value corresponds to O=C(C(F)F)N1CCC(c2cccc([C@H](Cc3ccccc3)c3ccc(-c4cc(Cl)ccc4-n4cnnn4)c[n+]3[O-])c2)CC1 [Example 37] ?
536
